Molecular target: KDM4C (Homo sapiens, UniProt Q9H3R0)
Sequence (Q9H3R0 whole entry): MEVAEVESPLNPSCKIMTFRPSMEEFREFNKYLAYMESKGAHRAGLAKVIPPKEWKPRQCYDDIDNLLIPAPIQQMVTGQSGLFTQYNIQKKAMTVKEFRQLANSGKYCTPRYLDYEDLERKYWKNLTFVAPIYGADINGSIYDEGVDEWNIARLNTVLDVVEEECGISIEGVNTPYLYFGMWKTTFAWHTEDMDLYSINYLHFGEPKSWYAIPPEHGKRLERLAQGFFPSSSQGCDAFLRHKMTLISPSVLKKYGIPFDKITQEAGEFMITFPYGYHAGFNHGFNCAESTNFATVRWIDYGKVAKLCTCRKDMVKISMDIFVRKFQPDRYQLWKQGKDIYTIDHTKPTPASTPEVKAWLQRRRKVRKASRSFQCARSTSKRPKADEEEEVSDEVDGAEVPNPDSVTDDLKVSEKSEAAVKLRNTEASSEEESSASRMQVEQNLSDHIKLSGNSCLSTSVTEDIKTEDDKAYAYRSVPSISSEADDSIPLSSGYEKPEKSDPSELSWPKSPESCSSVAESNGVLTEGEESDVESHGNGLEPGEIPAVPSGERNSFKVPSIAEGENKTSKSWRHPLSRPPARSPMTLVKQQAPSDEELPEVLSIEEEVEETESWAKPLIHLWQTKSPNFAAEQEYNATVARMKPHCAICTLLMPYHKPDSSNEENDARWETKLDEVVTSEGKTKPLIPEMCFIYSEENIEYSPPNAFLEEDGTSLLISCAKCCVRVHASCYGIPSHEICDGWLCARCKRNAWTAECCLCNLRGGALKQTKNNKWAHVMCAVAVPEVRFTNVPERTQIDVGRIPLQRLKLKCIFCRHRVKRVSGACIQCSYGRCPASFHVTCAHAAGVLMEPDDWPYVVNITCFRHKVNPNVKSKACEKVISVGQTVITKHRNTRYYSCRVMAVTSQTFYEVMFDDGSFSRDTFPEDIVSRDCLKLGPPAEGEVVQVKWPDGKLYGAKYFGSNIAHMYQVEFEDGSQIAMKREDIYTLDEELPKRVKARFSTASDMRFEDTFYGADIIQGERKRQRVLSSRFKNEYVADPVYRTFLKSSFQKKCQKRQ
parameter: IC50 (µM)
Just the number please, in µM, no unit attached.

# input Any idea what IC50 came out for Nc1ccc(O)c(-c2cc(C(=O)O)ccn2)c1 [Compound 30] on KDM4C (Homo sapiens, UniProt Q9H3R0)?
# output 135

* * *

parameter: pIC50
// field semantics: pIC50 = negative decimal log of concentration (mol/L)

# input Any idea what pIC50 came out for Nc1ccc(O)c(-c2cc(C(=O)O)ccn2)c1 on FIH (Homo sapiens, UniProt Q9NWT6)?
# output 3.08
